Sourced from patent US10865216B2

Answer each item with its documented MIC Ec.
test system: E. coli ATCC 25922; experiment: MIC, E. coli ATCC 25922; type: cell-based; settings: Table 18, Ec

Look up MIC Ec for this compound: CNc1cc(F)cc2c1[nH]c1nc(Oc3cnc4cc[s+]([O-])c4c3)nc(N3CC4(CC[C@H]4N)C3)c12 (stereo partly shown)
≤ 0.5 µg/mL

Now try CNc1cc(F)c(F)c2c1[nH]c1nc(Oc3cnc(C(C)O)nc3)nc(N3CC4(CCCC4N)C3)c12 (stereo not shown) .
≤ 0.5 µg/mL

Now try CNc1cc(F)cc2c1[nH]c1nc(Oc3cnc4c(c3)C(=O)N(C)C4C)nc(N3CC4(CC[C@H]4N)C3)c12 (stereo partly shown) .
1 µg/mL

Now try CNc1cc(F)cc2c1[nH]c1nc(NCc3cccnc3)nc(N3C[C@H]4C[C@@H]3C[C@H]4N)c12 [Compound 10.51] .
16 µg/mL

Now try CNc1cc(F)c(F)c2c1[nH]c1nc(Oc3cnc(C)nc3)nc(N3CCC(S(N)(=O)=O)C3)c12 (stereo not shown) .
2 µg/mL

Now try "CNc1cc(F)c(F)c2c1[nH]c1nc(Oc3cnc4ccnn4c3)nc(N3C[C@H]4C[C@@H]3C[C@H]4N)c12" .
≤ 0.5 µg/mL

Now try "CNc1cc(F)cc2c1[nH]c1nc(Oc3cnc4c(F)cnn4c3)nc(N3C[C@H]4C[C@@H]3C[C@H]4N)c12" .
≤ 0.5 µg/mL

Now try "CNc1cc(F)cc2c1[nH]c1nc(Nc3cnc(C)nc3)nc(N3C[C@H]4C[C@@H]3C[C@H]4N)c12" .
≤ 0.5 µg/mL

Now try "CNc1cc(F)c(Cl)c2c1[nH]c1nc(Oc3cnc(C)nc3)nc(N3C[C@H]4CCN[C@H]4C3)c12" .
≤ 0.5 µg/mL

Now try CNc1cc(F)cc2c1[nH]c1nc(Oc3cnc4c(c3)C(=O)N(C)C4O)nc(N3C[C@H]4C[C@@H]3C[C@H]4N)c12 (stereo partly shown) .
> 16 µg/mL

Now try "CNc1cc(F)cc2c1[nH]c1nc(Oc3ccc4ccnn4c3)nc(N3C[C@H]4C[C@@H](N)[C@H]4C3)c12" .
≤ 0.5 µg/mL

Now try "CNc1cc(F)c(C#N)c2c1[nH]c1nc(Oc3cnc(C)nc3)nc(N3CC4(CC[C@H]4N)C3)c12" .
≤ 0.5 µg/mL

Now try "CNc1cc(Cl)cc2c1[nH]c1nc(Oc3cnc4ccnn4c3)nc(N3C[C@H]4C[C@@H]3C[C@H]4N)c12" .
≤ 0.5 µg/mL

----------
test system: E. coli ATCC 25922; assay: MIC, E. coli ATCC 25922; assay type: cell-based; settings: Escherichia coli, ATCC25922, Table 16; new R4 substituents; EC8 not defined; read-out: EC8 MIC
Answer each item with its documented MIC.

Look up MIC for this compound: CNc1cc(F)cc2c1[nH]c1nc(Oc3cnc(C)nc3)nc(N3CC(N)C(C(=O)NCC(C)O)C3)c12 (centres unmarked) [drawing 1822]
> 16 µg/mL

Now try CNc1cc(F)cc2c1[nH]c1nc(Oc3cnc(C)nc3)nc(N3CC(N)C(C(=O)O)C3)c12 (centres unmarked) .
> 16 µg/mL

Now try CNc1cc(F)cc2c1[nH]c1nc(Oc3cnc(C)nc3)nc(N3CCC(C)(CN)C3)c12 (centres unmarked) .
≤ 0.5 µg/mL

Now try "CNc1cc(F)cc2c1[nH]c1nc(Oc3cnc(C)nc3)nc(N3CC[C@@H](CN)C3)c12" .
≤ 0.5 µg/mL

Now try CNc1cc(F)cc2c1[nH]c1nc(Oc3cnc(C)nc3)nc(N3CC(N)C(C(=O)NCCN4CCOCC4)C3)c12 (centres unmarked) [drawing 1823] .
> 16 µg/mL

----------
test system: S. aureus ATCC 13709; assay: MIC, S. aureus ATCC 13709; type: cell-based; details: Staphylococcus aureus, ATCC13709, S. aureus; Alamar Blue read after overnight incubation at 35° C.; read-out: MIC Sa
recorded metric: MIC (µg/mL)
# output: bare number, implied unit µg/mL

Look up MIC for this compound: "CNc1cccc2c1[nH]c1nc(Sc3cnc4cccnc4c3)nc(N3CCC4(CCNCC4)C3)c12"
4

Now try "CNc1cccc2c1[nH]c1nc(Sc3cnc4ccc[n+]([O-])c4c3)nc(N3CC(CN)C3)c12" .
4

Now try "CNc1cccc2c1[nH]c1nc(Oc3cncc(F)c3)cc(N3CCC4(CNC4)C3)c12" .
8

Now try CNc1cccc2c1[nH]c1nc(Sc3cnc4cccnc4c3)nc(N3CC4CCCNC4C3)c12 (centres unmarked) .
4

Now try CNc1nccc2c1[nH]c1nc(Oc3cncc(F)c3)nc(N3CCC4(CC4N)C3)c12 (centres unmarked) .
16

Now try "CNc1cccc2c1[nH]c1nc(Oc3cncnc3)cc(N3CCN(Cc4ccccn4)CC3)c12" .
8

----------
Answer each item with its documented MIC.
system: E. coli ATCC 25922; experiment: MIC, E. coli ATCC 25922; format: cell-based; details: Escherichia coli, ATCC25922, Table 16; new R4 substituents; EC8 not defined; read-out: EC8 MIC

Look up MIC for this molecule: CNc1cc(F)cc2c1[nH]c1nc(Oc3cnc(C)nc3)nc(N3CCC(F)(CN)C3)c12 (stereo not drawn)
≤ 0.5 µg/mL

Now try CNc1cc(F)cc2c1[nH]c1nc(Oc3cnc(C)nc3)nc(N3CCC(C)(N)C3)c12 (stereo not drawn) .
≤ 0.5 µg/mL

Now try CCC1(CN)CCN(c2nc(Oc3cnc(C)nc3)nc3[nH]c4c(NC)cc(F)cc4c23)C1 (stereo not drawn) .
≤ 0.5 µg/mL

----------
Answer each item with its documented MIC.
tested on: S. aureus ATCC 13709; test: MIC, S. aureus ATCC 13709; assay type: cell-based; conditions: Staphylococcus aureus, ATCC13709, S. aureus; Alamar Blue read after overnight incubation at 35° C.; read-out: MIC Sa

Look up MIC for this compound: CNc1cccc2c1[nH]c1nc(Sc3cnc4nccnc4c3)nc(N3CC4C(N)C4C3)c12 (stereo not drawn)
≤ 0.5 µg/mL

Now try CNc1cccc2c1[nH]c1nc(Oc3cncc(C#N)c3)cc(N3CCC4(CC4N)C3)c12 (stereo not drawn) .
≤ 0.5 µg/mL

Now try "CNc1cccc2c1[nH]c1nc(Sc3cnc4ccc[n+]([O-])c4c3)nc(N3C[C@@H]4[C@@H](CN)[C@@H]4C3)c12" .
≤ 0.5 µg/mL

Now try CNc1cccc2c1[nH]c1nc(Oc3cnc4cccnc4c3)cc(N3CC4C(N)C4C3)c12 (stereo not drawn) .
≤ 0.5 µg/mL

Now try "CNc1cccc2c1[nH]c1nc(Sc3cnc4ccc[n+]([O-])c4c3)nc(N3CC[C@@H](C)[C@@H](N)C3)c12" .
≤ 0.5 µg/mL

Now try "CNc1cc(F)c(F)c2c1[nH]c1nc(Oc3cnc(CO)nc3)nc(N3C[C@H]4C[C@@H]3C[C@H]4N)c12" .
≤ 0.5 µg/mL

Now try CNc1cc(F)cc2c1[nH]c1nc(Sc3cnc4ccc[n+]([O-])c4c3)nc(N3CCC4(CC4N)C3)c12 (stereo not drawn) .
≤ 0.5 µg/mL

Now try "CNc1cccc2c1[nH]c1nc(Oc3cnc(C)nc3)cc(N3CC[C@@H](N)C3)c12" .
0.25 µg/mL

Now try CNc1cccc2c1[nH]c1nc(Sc3cnc4ccc[n+]([O-])c4c3)nc(N3CC4C(C3)C4NC(=O)[C@H](C)N)c12 (stereo partly drawn) .
1 µg/mL

Now try CNc1cccc2c1[nH]c1nc(Oc3cncc(F)c3)cc(N3CC(N)C4(CC4)C3)c12 (stereo not drawn) .
≤ 0.5 µg/mL

Now try CNc1cccc2c1[nH]c1nc(Sc3cncc(S(=O)(=O)NC)c3)nc(N3CC4C(N)C4C3)c12 (stereo not drawn) .
2 µg/mL

Now try "CNc1cccc2c1[nH]c1nc(Oc3cncnc3)cc(N3CCC(N)CC3)c12" .
16 µg/mL

Now try "CNc1cccc2c1[nH]c1nc(Sc3cnc4ccc[n+]([O-])c4c3)nc(N3CC(CNC(=O)c4cn(C)nc4C(F)(F)F)C3)c12" .
≤ 0.5 µg/mL

Now try "CNc1cccc2c1[nH]c1nc(Sc3cnc4cccnc4c3)nc(N3C[C@H](N)C[C@H]3C)c12" .
8 µg/mL

Now try "CNc1cccc2c1[nH]c1nc(Oc3cncc(C#N)c3)cc(N3CC[C@@H](N)C3)c12" .
0.5 µg/mL

Now try CNc1cccc2c1[nH]c1nc(Oc3cnc4c(c3)ncn4C)cc(N3CC4C(N)C4C3)c12 (stereo not drawn) .
≤ 0.5 µg/mL

Now try "CNc1cc(F)cc2c1[nH]c1nc(Oc3cnc(C)nc3)nc(-c3cccnc3N)c12" .
≤ 0.5 µg/mL

Now try "CNc1cccc2c1[nH]c1nc(Oc3cncnc3)cc(N3CCC4(CNC4)C3)c12" .
8 µg/mL

Now try "CNc1cc(F)c(C)c2c1[nH]c1nc(Oc3cnc(C)nc3)nc(N3C[C@H](N)C4(CC4)C3)c12" .
≤ 0.5 µg/mL

Now try CNc1cccc2c1[nH]c1nc(Sc3cnc4cccnc4c3)nc(N3CC4C(N)C4C3)c12 (stereo not drawn) .
≤ 0.5 µg/mL

Now try CNc1cc(F)cc2c1[nH]c1nc(Oc3cnc(CCO)nc3)nc(N3CC4C[C@@H](N)C4C3)c12 (stereo partly drawn) .
≤ 0.5 µg/mL

Now try "CNc1cccc2c1[nH]c1nc(Oc3cncc(F)c3)cc(N3CC[C@@H](N)C3)c12" .
0.5 µg/mL

Now try CNc1cccc2c1[nH]c1nc(Sc3cnc4cccnc4c3)nc(N3CC(N)C4(CC4)C3)c12 (stereo not drawn) .
≤ 0.5 µg/mL

Now try CNc1cccc2c1[nH]c1nc(Oc3cncnc3)cc(N3CC4C(C3)C4NCC3CC3)c12 (stereo not drawn) .
≤ 0.5 µg/mL
